- Assay protocol: xn = mol fraction of the nth substance listed, in the solute-free solvent
- Test conditions: 313.15 K; x2 = 0.6
Rule: solubility (g/100 g solution) under 10 gives no (0), otherwise yes (1).

Below are worked cases with known answers.
[
  {
    "Compound": "CCOc1ccccc1C(N)=O + CCO + CC#N",
    "Qualitative label": "yes (1)"
  },
  {
    "Compound": "Cl.N=C(N)NC(=N)N1CCOCC1 + O + CC(C)O",
    "Qualitative label": "yes (1)"
  }
]

Shifting focus to the compound that follows.
Q: Could you tell me if the measured solubility (g/100 g solution) of Cc1c(Br)c(=O)n(C2CCCC2)c2nc(Cl)ncc12 + CCOC(C)=O + CCO reaches 10 or more?
Ans: no (0)
